In this section, each of the molecules is paired with its reported MIC.
# System: BS1725 B. subtilis ermC
# protocol_description: broth dilution MIC, B. subtilis BS1725
# Type: cell-based
# measurement_context: Bacillus subtilis, BS1725 B. subtilis ermC (+ery)

# molecule, experimental_endpoint, reported_measurement
measured = [
    ("CC[C@H]1OC(=O)[C@H](C)C(=O)C[C@@H](O[C@@H]2OC(C)CC(N(C)C)C2O)[C@](C)(OC)C[C@@H](C)CN[C@H](C)[C@H]2N(CCCCn3cc(-c4nc5ccccc5s4)nn3)C(=O)O[C@]12C (stereo partly shown)", "MIC", "> 32 µg/mL"),
    ("CC[C@H]1OC(=O)[C@H](C)C(=O)C[C@@H](O[C@@H]2OC(C)CC(N(C)C)C2O)[C@](C)(OC)C[C@@H](C)CN(C(C)=O)[C@H](C)[C@H]2N(CCCCn3cc(-c4cccnn4)nn3)C(=O)O[C@]12C (stereo partly shown)", "MIC", "> 32 µg/mL"),
    ("CC[C@H]1OC(=O)[C@H](C)C(=O)C[C@@H](O[C@@H]2OC(C)CC(N(C)C)C2O)[C@@](C)(OC)C[C@@H](C)CN[C@H](C)[C@H]2N(CCCCn3cc(-c4cccnn4)nn3)C(=O)O[C@]12C (stereo partly shown)", "MIC", "> 32 µg/mL"),
]

Now turn to the next molecule.
[Q] Find MIC for CC[C@H]1OC(=O)[C@](C)(F)C(=O)C[C@@H](O[C@@H]2OC(C)CC(N(C)C)C2O)[C@](C)(OC)C[C@@H](C)CN[C@H](C)[C@H]2N(CCCCn3cc(-c4nccs4)nn3)C(=O)O[C@]12C (stereo partly shown) on BS1725 B. subtilis ermC and write it down.
[A] > 32 µg/mL

---

# Tested on: Spn1509 S. pneumoniae ermB positive mefA negative
# protocol_description: broth dilution MIC, S. pneumoniae Spn1509
# Type: cell-based
# measurement_context: Streptococcus pneumoniae; Spn1509 S. pneumoniae ermB positive mefA negative; read-out: MIC
# Excerpt: We have collected MIC data for a total of 50 novel macrolides that this platform has produced against over 21 unique strains of B. subtilis, E. coli, S. aureus, S. pneumoniae, and H. influenzae, including several multidrug-resistant strains, with a special focus on macrolide resistant mechanisms (vide supra). Azithromycin was included as a control macrolide. CLSI standard procedures for broth dilution MIC determination were used. […] These genotypes can be constitutive or inducible. […]
experimental_endpoint: MIC (µg/mL)
Your answer is read as µg/mL, so omit the unit and give the number.

# compound, assayed_target, reported_measurement
measured = [
    ("CC[C@H]1OC(=O)C(C)(F)C(=O)[C@@H](C)[C@@H](O[C@@H]2OC(C)CC(N(C)C)C2O)[C@](C)(OC)C[C@@H](C)CN[C@H](C)[C@H]2N(CCCCn3cc(-c4cccc(N)c4)nn3)C(=O)O[C@]12C (stereo partly shown)", "Spn1509 S. pneumoniae ermB positive mefA negative", 2),
]

Now turn to the next compound.
[Q] Find MIC for CC[C@H]1OC(=O)C(C)C(=O)[C@@H](C)[C@@H](O[C@@H]2OC(C)CC(N(C)C)C2O)[C@](C)(OC)C[C@@H](C)CN[C@H](C)[C@H]2N(CCCCn3cc(-c4cccc(N)c4)nn3)C(=O)O[C@]12C (stereo partly shown) on Spn1509 S. pneumoniae ermB positive mefA negative and write it down.
[A] 1

---

# Test system: Spn160 S. pneumoniae ermB unknown mefA positive
# protocol_description: broth dilution MIC, S. pneumoniae Spn160
# Assay type: cell-based
# measurement_context: Streptococcus pneumoniae; Spn160 S. pneumoniae ermB unknown mefA positive; read-out: MIC
experimental_endpoint: MIC (µg/mL)
Your answer is read as µg/mL, so omit the unit and give the number.

Some solved entries appear below for comparison.
# molecule, readout_units, MIC
measured = [
    ("CC[C@H]1OC(=O)C(C)C(=O)[C@@H](C)[C@@H](O[C@@H]2OC(C)CC(N(C)C)C2O)[C@](C)(OC)C[C@@H](C)CN[C@H](C)[C@H]2N(CCCCn3cc(-c4cccc(N)c4)nn3)C(=O)O[C@]12C (some centres unmarked)", "µg/mL", 0.25),
    ("CC[C@H]1OC(=O)C(C)(F)C(=O)[C@H](C)[C@@H](O[C@@H]2OC(C)CC(N(C)C)C2O)[C@](C)(OC)C[C@@H](C)CN(C)[C@H](C)[C@H]2N(CCCCn3cc(-c4cccc(N)c4)nn3)C(=O)O[C@]12C (some centres unmarked)", "µg/mL", 0.125),
    ("CC[C@H]1OC(=O)C(C)(F)C(=O)[C@@H](C)[C@@H](O[C@@H]2OC(C)CC(N(C)C)C2O)[C@](C)(OC)C[C@@H](C)CN[C@H](C)[C@H]2N(CCCCn3cc(-c4ccccn4)nn3)C(=O)O[C@]12C (some centres unmarked)", "µg/mL", 0.5),
    ("CC[C@H]1OC(=O)C(C)(F)C(=O)[C@@H](C)[C@@H](O[C@@H]2OC(C)CC(N(C)C)C2O)[C@](C)(OC)C[C@@H](C)CN[C@H](C)[C@H]2N(CCCCn3cc(-c4cccc(N)c4)nn3)C(=O)O[C@]12C (some centres unmarked)", "µg/mL", 0.5),
    ("CC[C@H]1OC(=O)C(C)C(=O)[C@@H](C)[C@@H](O[C@@H]2OC(C)CC(N(C)C)C2O)[C@](C)(OC)C[C@@H](C)CN[C@H](C)[C@H]2N(CCCCn3cc(-c4ccccn4)nn3)C(=O)O[C@]12C (some centres unmarked)", "µg/mL", 0.25),
    ("CC[C@H]1OC(=O)C(C)(F)C(=O)[C@H](C)[C@@H](O[C@@H]2OC(C)CC(N(C)C)C2O)[C@](C)(OC)C[C@@H](C)CN[C@H](C)[C@H]2N(CCCCn3cc(-c4cccc(N)c4)nn3)C(=O)O[C@]12C (some centres unmarked)", "µg/mL", 0.0312),
]

Now turn to the next molecule.
[Q] Please report MIC for the following molecule: CC[C@H]1OC(=O)[C@H](C)[C@@H](O[C@H]2C[C@@](C)(OC)[C@@H](O)[C@H](C)O2)[C@H](C)[C@@H](O[C@@H]2O[C@H](C)C[C@H](N(C)C)[C@H]2O)[C@](C)(O)C[C@@H](C)CN(C)[C@H](C)[C@@H](O)[C@]1(C)O [Azithromycin, reference compound]
[A] 2

---

# Test system: EC878 E. coli tolC
# protocol_description: broth dilution MIC, E. coli EC878
# Assay type: cell-based
# measurement_context: Escherichia coli
experimental_endpoint: MIC (µg/mL)
Your answer is read as µg/mL, so omit the unit and give the number.

# compound, experimental_endpoint, readout_units, reported_measurement
measured = [
    ("CC[C@H]1OC(=O)C(C)(F)C(=O)[C@@H](C)[C@@H](O[C@@H]2OC(C)CC(N(C)C)C2O)[C@](C)(OC)C[C@@H](C)CN[C@H](C)[C@H]2N(CCCCn3cc(-c4nccs4)nn3)C(=O)O[C@]12C (stereo partly shown)", "MIC", "µg/mL", 1),
    ("CC[C@H]1OC(=O)[C@H](C)[C@@H](O[C@H]2C[C@@](C)(OC)[C@@H](O)[C@H](C)O2)[C@H](C)[C@@H](O[C@@H]2O[C@H](C)C[C@H](N(C)C)[C@H]2O)[C@](C)(O)C[C@@H](C)CN(C)[C@H](C)[C@@H](O)[C@]1(C)O [Azithromycin, reference compound]", "MIC", "µg/mL", 0.5),
]

[Q] Please report MIC for the following compound: CC[C@H]1OC(=O)[C@H](C)[C@@H](O[C@H]2C[C@@](C)(OC)[C@@H](O)[C@H](C)O2)[C@H](C)[C@@H](O[C@@H]2O[C@H](C)C[C@H](N(C)C)[C@H]2O)[C@](C)(O)C[C@@H](C)C(=O)[C@H](C)[C@@H](O)[C@]1(C)O [Erythromycin, erythromycin, reference compound]
[A] 2

---

# Test system: H. influenzae strains
# protocol_description: MIC against H. influenzae strains (Table M8)
# Format: cell-based
# measurement_context: Haemophilus influenzae, H. influenzae 49247; read-out: MIC H. influenzae (49247)
# From the text: We have collected MIC data for a total of 50 novel macrolides that this platform has produced against over 21 unique strains of B. subtilis, E. coli, S. aureus, S. pneumoniae, and H. influenzae, including several multidrug-resistant strains, with a special focus on macrolide resistant mechanisms (vide supra). Azithromycin was included as a control macrolide. CLSI standard procedures for broth dilution MIC determination were used. […] These genotypes can be constitutive or inducible. […]
experimental_endpoint: MIC (µg/mL)
Your answer is read as µg/mL, so omit the unit and give the number.

# compound, reported_measurement
records = [
    ("CC[C@H]1OC(=O)[C@H](C)C(=O)[C@H](C)[C@@H](O[C@@H]2OC(C)CC(N(C)C)C2O)[C@](C)(OC)C[C@@H](C)CN[C@H](C)[C@H]2N(CCCCn3cc(-c4nccs4)nn3)C(=O)O[C@]12C (some centres unmarked)", 0.25),
]

Now turn to the next compound.
[Q] Please report MIC for the following compound: CC[C@H]1OC(=O)[C@H](C)C(=O)[C@H](C)[C@@H](O[C@@H]2OC(C)CC(N(C)C)C2O)[C@](C)(OC)C[C@@H](C)CN[C@H](C)[C@H]2N(CCCn3cc(-c4cccc(N)c4)nn3)C(=O)O[C@]12C (some centres unmarked)
[A] 0.5

These data points were gathered from patent US9982005B2.
